Quick record: AC50, Adenosine receptor A1 (Homo sapiens, UniProt P30542).

Exercise: // fetch Adenosine receptor A1 (Homo sapiens, UniProt P30542) AC50 for CCN(CC)CCNC(=O)c1cc(Cl)c(N)cc1OC [METOCLOPRAMIDE]
Solution: > 30 µM

====

This listing pairs compounds with measured AC50.
Test System: Progesterone receptor (Homo sapiens, UniProt P06401); further: assay procedure not described here
Sequence (P06401 whole entry): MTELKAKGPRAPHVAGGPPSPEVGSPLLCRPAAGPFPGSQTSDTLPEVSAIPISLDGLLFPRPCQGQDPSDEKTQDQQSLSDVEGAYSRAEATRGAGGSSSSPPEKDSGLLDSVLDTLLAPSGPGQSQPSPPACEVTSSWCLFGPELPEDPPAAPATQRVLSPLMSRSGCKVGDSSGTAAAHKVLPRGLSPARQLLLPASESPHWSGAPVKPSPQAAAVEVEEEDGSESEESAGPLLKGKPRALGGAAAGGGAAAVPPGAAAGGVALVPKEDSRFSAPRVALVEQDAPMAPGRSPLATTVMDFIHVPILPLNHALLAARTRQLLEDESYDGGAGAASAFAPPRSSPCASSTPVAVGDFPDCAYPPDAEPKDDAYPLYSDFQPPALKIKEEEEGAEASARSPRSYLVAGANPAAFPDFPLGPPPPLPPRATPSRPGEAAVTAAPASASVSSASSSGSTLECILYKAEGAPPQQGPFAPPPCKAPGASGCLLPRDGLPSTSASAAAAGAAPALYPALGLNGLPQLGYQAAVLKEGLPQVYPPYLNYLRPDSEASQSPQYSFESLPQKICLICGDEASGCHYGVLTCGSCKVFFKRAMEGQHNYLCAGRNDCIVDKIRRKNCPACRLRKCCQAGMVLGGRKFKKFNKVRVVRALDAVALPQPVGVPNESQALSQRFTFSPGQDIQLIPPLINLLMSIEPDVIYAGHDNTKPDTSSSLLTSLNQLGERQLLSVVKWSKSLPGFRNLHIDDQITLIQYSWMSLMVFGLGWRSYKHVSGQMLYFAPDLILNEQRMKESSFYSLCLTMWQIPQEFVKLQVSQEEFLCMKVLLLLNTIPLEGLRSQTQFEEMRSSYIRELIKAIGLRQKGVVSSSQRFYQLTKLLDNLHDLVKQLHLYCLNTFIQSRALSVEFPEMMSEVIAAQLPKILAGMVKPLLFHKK
Format: functional

Take a look at these entries with their results.
Compound	Test System	AC50
CCC(C(=O)O)c1ccc(CC(C)C)cc1 (stereo not given)	Progesterone receptor (Homo sapiens, UniProt P06401)	> 30 µM
CC[C@]1(O)C[C@@H]2CN(CCc3c([nH]c4ccccc34)[C@@](C(=O)OC)(c3cc4c(cc3OC)N(C)[C@H]3[C@@](O)(C(N)=O)[C@H](O)[C@]5(CC)C=CCN6CC[C@]43[C@@H]65)C2)C1	Progesterone receptor (Homo sapiens, UniProt P06401)	> 30 µM
CC(C)[N+](C)(CCC(C(N)=O)(c1ccccc1)c1ccccc1)C(C)C [ISOPROPAMIDE]	Progesterone receptor (Homo sapiens, UniProt P06401)	> 10 µM
CCCCCOC(=O)Nc1nc(=O)n([C@@H]2O[C@H](C)[C@@H](O)[C@H]2O)cc1F	Progesterone receptor (Homo sapiens, UniProt P06401)	> 30 µM

Then this compound:
Exercise: Which AC50 value belongs to `CN(C/C=C/c1ccccc1)Cc1cccc2ccccc12` ?
Solution: > 30 µM
